The measurements presented in this section are drawn from ChEMBL document CHEMBL1201862.

Test system: NCI-H522
Assay Overview: NCI tumour cell line growth inhibition, 48 h
Calls of active or inactive are those of the source. Cut-off read from the data, not from the text of the source: active = GI50 up to about 1.1 µM and inactive = higher.
The reader will find reported GI50 values listed item by item below.

| Molecule | GI50 |
| --- | --- |
| CCCCC1Cc2cc(O)ccc2-c2nc3cc(O)ccc3n21.CCCCC1Cc2cc(O)ccc2-c2nc3ccc(O)cc3n21 (configuration not stated) | 11.1 µM (inactive) |
| CC1=C2CC(C)(C)CC(=O)C2(C)CCC1=O (configuration not stated) | > 100 µM (inactive) |
| COc1nc(O)c(N)c(NC2OC(CO)C(O)C(O)C2O)n1 (configuration not stated) | > 100 µM (inactive) |
| COc1ccc(C2Oc3c(OC)cc(CCCO)cc3C2CO)cc1OC (configuration not stated) | 86.7 µM (inactive) |
| COC(=O)C1C2CCCN2OC1(C)CO (configuration not stated) | > 100 µM (inactive) |
| CC(=O)OCC1OC(n2c3c(cc(C#N)c2=S)CCCCCC3)C(OC(C)=O)C(OC(C)=O)C1OC(C)=O (configuration not stated) | 76.4 µM (inactive) |
| CC(=O)c1cc(I)c(O)c2ncccc12 | 3.6 µM (inactive) |
